Measured logP accompanies every entry in the list below.
Hey, just send me the number, nothing else.

1. CCCCCCCC(=O)NC1CC(C)(C)N([O])C(C)(C)C1: 2.83

Ask: Which measured logP value corresponds to "CC(C)C[C@@H](CCCC(=O)NC1CC(C)(C)N([O])C(C)(C)C1)NC(=O)OC(C)(C)C" ?
Result: 2.94

Ask: Here is the next compound: "CC(C)C[C@@H](/C=C/[C@H](Cc1ccccc1)C(=O)NC1CC(C)(C)N(O)C(C)(C)C1)NC(=O)OC(C)(C)C"
Result: 4.93

Ask: Proceed to "CC(C)C[C@@H](/C=C/CNC(=O)C1CC(C)(C)N([O])C(C)(C)C1)NC(=O)OC(C)(C)C"
Result: 3.15

Ask: And for "CC(C)C[C@@H](/C=C/[C@H](Cc1ccc(F)cc1)C(=O)NC1CC(C)(C)N(O)C(C)(C)C1)NC(=O)OC(C)(C)C" ?
Result: 5.09

Ask: How about "CC(C)(C)OC(=O)N[C@@H](/C=C/CC(=O)NC1CC(C)(C)N([O])C(C)(C)C1)c1ccccc1" ?
Result: 2.92
